Assay: Solubility of selected steroids enhanced by cyclodextrins (phase solubility)
Conditions: aqueous cyclodextrin solution, aqueous with cosolvent or surfactant or cyclodextrin, thermodynamic from solid, Solubility of steroid, (SBE)7 α-CD 0.08 M
experimentalReadout: solubility (µM)

Use these answered entries as a reference point.
[[record]]
compound = "C[C@@H]1C[C@H]2[C@@H]3CCC4=CC(=O)C=C[C@]4(C)[C@@]3(Cl)[C@@H](O)C[C@]2(C)[C@@]1(O)C(=O)CCl"
measureunit = "µM"
numericresult = 1170

[[record]]
compound = "CCCC1O[C@@H]2C[C@H]3[C@@H]4CCC5=CC(=O)C=C[C@]5(C)[C@H]4[C@@H](O)C[C@]3(C)[C@]2(C(=O)CO)O1 (stereo partly shown) [Budesonide]"
measureunit = "µM"
numericresult = 5980


a: C[C@@H]1C[C@H]2[C@@H]3CCC4=CC(=O)C=C[C@]4(C)[C@@]3(Cl)[C@@H](O)C[C@]2(C)[C@@]1(OC(=O)c1ccco1)C(=O)CCl [Mometasone furoate, mometasone furoate]
b: CCC(=O)O[C@]1(C(=O)SCF)[C@H](C)C[C@H]2[C@@H]3C[C@H](F)C4=CC(=O)C=C[C@]4(C)[C@@]3(F)[C@@H](O)C[C@@]21C [Fluticasone propionate, fluticasone propionate]
# input Would you mind telling me which has the lower recorded solubility between a and b ? Field: selected label. Fill in the label of the entry you choose.
# output b
(b: 114 µM, a: 355 µM)

###

Assay: physchem
Conditions: aqueous with cosolvent or surfactant or cyclodextrin, thermodynamic from solid, [Steroid] solubility, Captisol (0.04 M)
experimentalReadout: solubility (mM)

a: C[C@]12C=CC(=O)C=C1CC[C@@H]1[C@@H]2C(=O)C[C@@]2(C)[C@H]1CC[C@]2(O)C(=O)CO
b: CC1(C)O[C@@H]2C[C@H]3[C@@H]4C[C@H](F)C5=CC(=O)C=C[C@]5(C)[C@H]4[C@@H](O)C[C@]3(C)[C@]2(C(=O)CO)O1 [Flunisolide]
# input When the recorded solubility values are compared, which is smaller: that of a or that of b ? When you have decided, please share the label of that item.
# output b
(b: 2.62 mM, a: 18.3 mM)

###

Test: Molar ratio SAE-CD:corticosteroid at saturated solubility (phase solubility binding study)
Assay type: physicochemical
Settings: SAE-β-CD
experimentalReadout: Approximate Molar Ratio at Saturated Solubility of Corticosteroid (SAE-CD: corticosteroid)

Guide cases for Approximate Molar Ratio at Saturated Solubility of Corticosteroid (SAE-CD: corticosteroid), answers given:
[[record]]
compound = "CC1(C)O[C@@H]2C[C@H]3[C@@H]4CCC5=CC(=O)C=C[C@]5(C)[C@@]4(F)[C@@H](O)C[C@]3(C)[C@]2(C(=O)CO)O1 [Triamcinolone acetonide, triamcinolone acetonide]"
result = "~9"

[[record]]
compound = "CC1(C)O[C@@H]2C[C@H]3[C@@H]4C[C@H](F)C5=CC(=O)C=C[C@]5(C)[C@H]4[C@@H](O)C[C@]3(C)[C@]2(C(=O)CO)O1 [Flunisolide]"
result = "~16"

[[record]]
compound = "C[C@@H]1C[C@H]2[C@@H]3CCC4=CC(=O)C=C[C@]4(C)[C@@]3(Cl)[C@@H](O)C[C@]2(C)[C@@]1(O)C(=O)CCl [Mometasone, mometasone]"
result = "~33"


Query compound follows.
# input Item under review: C[C@@H]1C[C@H]2[C@@H]3CCC4=CC(=O)C=C[C@]4(C)[C@@]3(Cl)[C@@H](O)C[C@]2(C)[C@@]1(OC(=O)c1ccco1)C(=O)CCl [Mometasone furoate, mometasone furoate] . Reported Approximate Molar Ratio at Saturated Solubility of Corticosteroid (SAE-CD: corticosteroid)?
# output ~274

###

Test: Solubility of selected steroids enhanced by cyclodextrins (phase solubility)
Details: aqueous cyclodextrin solution, aqueous with cosolvent or surfactant or cyclodextrin, thermodynamic from solid, Solubility of steroid, (SBE)9.7 γ-CD 0.04 M
experimentalReadout: solubility (µM)
Answer in µM, number only, no unit symbol.

# input // returns reported solubility for input CCC(=O)O[C@]1(C(=O)SCF)[C@H](C)C[C@H]2[C@@H]3C[C@H](F)C4=CC(=O)C=C[C@]4(C)[C@@]3(F)[C@@H](O)C[C@@]21C [Fluticasone propionate, fluticasone propionate]
# output 545

###

Assay: Solubility of selected steroids enhanced by cyclodextrins (phase solubility)
Details: aqueous cyclodextrin solution, aqueous with cosolvent or surfactant or cyclodextrin, thermodynamic from solid, [Steroid] solubility, (SBE)6.1 γ-CD (0.04 M)
experimentalReadout: solubility (µM)

Record excerpt, results attached:
[[record]]
compound = "C[C@@H]1C[C@H]2[C@@H]3CCC4=CC(=O)C=C[C@]4(C)[C@@]3(Cl)[C@@H](O)C[C@]2(C)[C@@]1(OC(=O)c1ccco1)C(=O)CCl [Mometasone furoate, mometasone furoate]"
experimentalreadout = "solubility"
numericresult = 415

[[record]]
compound = "CC1(C)O[C@@H]2C[C@H]3[C@@H]4CCC5=CC(=O)C=C[C@]5(C)[C@@]4(F)[C@@H](O)C[C@]3(C)[C@]2(C(=O)CO)O1 [Triamcinolone acetonide, triamcinolone acetonide]"
experimentalreadout = "solubility"
numericresult = 10600


P: CCC(=O)O[C@]1(C(=O)SCF)[C@H](C)C[C@H]2[C@@H]3C[C@H](F)C4=CC(=O)C=C[C@]4(C)[C@@]3(F)[C@@H](O)C[C@@]21C [Fluticasone propionate, fluticasone propionate]
Q: CCCC1O[C@@H]2C[C@H]3[C@@H]4CCC5=CC(=O)C=C[C@]5(C)[C@H]4[C@@H](O)C[C@]3(C)[C@]2(C(=O)CO)O1 (stereo partly shown) [Budesonide]
# input I'd appreciate it if you could identify which of P and Q has the greater solubility. Indicate your choice by writing its label.
# output Q
